Assay: qHTS assay to identify small molecule agonists of H2AX - cell viability counter screen (AID 1224847); also: nearly all actives have a fitted effect of over 30% in size
Conditions: CHO-K1 viability, CellTiter-Glo luminescence, 3 h; series mostly up to 154 µM
Inconclusive results are not listed. The source made the active and inactive calls. Calls follow the shape of the full dose curve.
Outcomes: True (active), False (inactive)

- COMPOUND: "O=C(CCl)C(Cl)Cl"
  ASSIGNED CATEGORY: "False"
- COMPOUND: "CC(Cc1ccc(C(C)(C)C)cc1)CN1C[C@@H](C)O[C@@H](C)C1 (some centres not stated)"
  ASSIGNED CATEGORY: "True"
- COMPOUND: "C=CCC1=C(C)C(OC(=O)C2C(C=C(C)C)C2(C)C)CC1=O (configuration not stated)"
  ASSIGNED CATEGORY: "True"
- COMPOUND: "ClC1=C(Cl)[C@]2(Cl)[C@@H]3[C@@H](Cl)[C@H](Cl)C[C@@H]3[C@@]1(Cl)C2(Cl)Cl"
  ASSIGNED CATEGORY: "False"
- COMPOUND: "CCS(=O)(=O)c1cccnc1S(=O)(=O)NC(=O)Nc1nc(OC)cc(OC)n1"
  ASSIGNED CATEGORY: "False"
- COMPOUND: "C=CCOC(N)=O"
  ASSIGNED CATEGORY: "False"
- COMPOUND: "Cc1cc(SCc2sc(-c3ccc(C(F)(F)F)c(F)c3)nc2C)ccc1OCC(=O)O"
  ASSIGNED CATEGORY: "True"
- COMPOUND: "COP(=O)(CCC(=O)NCO)OC"
  ASSIGNED CATEGORY: "False"
- COMPOUND: "CCCCCCCCCCCCCCC(Br)C(=O)O (configuration not stated)"
  ASSIGNED CATEGORY: "False"
- COMPOUND: "CCOP(=S)(OCC)SCS(=O)(=O)CC"
  ASSIGNED CATEGORY: "False"
- COMPOUND: "ClC1=C(Cl)[C@]2(Cl)[C@@H]3[C@@H]4C[C@@H]([C@H]5O[C@@H]45)[C@@H]3[C@@]1(Cl)C2(Cl)Cl"
  ASSIGNED CATEGORY: "True"
- COMPOUND: "C[C@H]1CC[C@@H]2[C@@H](C)[C@H]3[C@H](C[C@H]4[C@@H]5CC=C6CC(O[C@@H]7O[C@H](CO)[C@H](O)[C@H](O[C@@H]8O[C@H](CO)[C@@H](O)[C@H](O)[C@H]8O)[C@H]7O[C@H]7O[C@@H](C)[C@H](O)[C@@H](O)[C@H]7O)CC[C@]6(C)[C@H]5CC[C@]34C)N2C1 (some centres not stated)"
  ASSIGNED CATEGORY: "True"
- COMPOUND: "FC(Cl)(Cl)Cl"
  ASSIGNED CATEGORY: "False"
- COMPOUND: "CC(C)(COCC1CO1)COCC1CO1 (configuration not stated)"
  ASSIGNED CATEGORY: "False"
- COMPOUND: "O=C1C=CC(=O)c2ccccc21"
  ASSIGNED CATEGORY: "True"
- COMPOUND: "Cn1cc(C2=C(c3cn(C4CCN(Cc5ccccn5)CC4)c4ccccc34)C(=O)NC2=O)c2ccccc21"
  ASSIGNED CATEGORY: "False"
- COMPOUND: "COP(N)(=S)OC"
  ASSIGNED CATEGORY: "False"

====

Experiment: qHTS assay to identify small molecule agonists of the sonic hedgehog signaling (Shh) pathway - cell viability counter screen (AID 1259366); also: nearly all actives have a fitted effect of over 50% in size
Details: NIH/3T3 Gli1-Luc viability, CellTiter-Fluor, 24 h; series mostly up to 92.4 µM
Results filed as inconclusive are left out. Calls of active or inactive are those of the source. The call rests on the fitted dose curve; in most records, active means well fitted cell-killing curve with a large enough effect in the repeat runs; inconclusive means weak or mixed curves, or effect the other way; inactive means flat fitted curve, though single readings scatter.
Outcomes: active, inactive

- COMPOUND: "CC(Cl)CN(C)C (configuration not stated)"
  ASSIGNED CATEGORY: "inactive"
- COMPOUND: "CC(C)C(=O)Cl"
  ASSIGNED CATEGORY: "inactive"
- COMPOUND: "Cc1cc(C)c(C2=C(OC(=O)CC(C)(C)C)C3(CCCC3)OC2=O)c(C)c1"
  ASSIGNED CATEGORY: "inactive"
- COMPOUND: "CCOc1cc(C(C)(C)C)ccc1C1COC(c2c(F)cccc2F)=N1 (configuration not stated)"
  ASSIGNED CATEGORY: "inactive"
- COMPOUND: "CCc1ccccc1C"
  ASSIGNED CATEGORY: "inactive"
- COMPOUND: "O=[N+]([O-])c1cc(C(F)(F)F)c(Cl)c([N+](=O)[O-])c1Cl"
  ASSIGNED CATEGORY: "active"
- COMPOUND: "C=COCCCl"
  ASSIGNED CATEGORY: "inactive"
- COMPOUND: "COc1ccc(/C(=C/C(=O)N2CCOCC2)c2ccc(Cl)cc2)cc1OC"
  ASSIGNED CATEGORY: "inactive"
- COMPOUND: "CC(C)(C)C(O)C(Oc1ccc(-c2ccccc2)cc1)n1cncn1 (configuration not stated)"
  ASSIGNED CATEGORY: "active"
- COMPOUND: "CCOCn1c(-c2ccc(Cl)cc2)c(C#N)c(Br)c1C(F)(F)F"
  ASSIGNED CATEGORY: "inactive"
- COMPOUND: "CCOP(=O)(NC(C)C)Oc1ccc(SC)c(C)c1 (configuration not stated)"
  ASSIGNED CATEGORY: "inactive"
- COMPOUND: "ClC1=C(Cl)[C@]2(Cl)[C@@H]3[C@@H](Cl)[C@@H](Cl)C[C@@H]3[C@@]1(Cl)C2(Cl)Cl"
  ASSIGNED CATEGORY: "inactive"
- COMPOUND: "COS(=O)(=O)c1ccc(C)cc1"
  ASSIGNED CATEGORY: "inactive"
- COMPOUND: "Cc1ccc(CCl)cc1"
  ASSIGNED CATEGORY: "inactive"
- COMPOUND: "ClC1=C(Cl)[C@]2(Cl)[C@@H]3[C@@H](Cl)[C@H](Cl)C[C@@H]3[C@@]1(Cl)C2(Cl)Cl"
  ASSIGNED CATEGORY: "inactive"
- COMPOUND: "[Hg+2].[I-].[I-]"
  ASSIGNED CATEGORY: "active"
- COMPOUND: "c1cc[c]([Sb]([c]2ccccc2)[c]2ccccc2)cc1"
  ASSIGNED CATEGORY: "inactive"

====

Test: qHTS assay to identify small molecule antagonists of the peroxisome proliferator-activated receptor delta (PPARd) signaling pathway - cell viability counter screen (AID 743213); also: nearly all actives have a fitted effect of over 50% in size
Conditions: PPARd-bla HEK293H viability, CellTiter-Glo luminescence, 17 h; series mostly up to 62 µM
Description: U.S. Tox21 Program National Center for Advancing Translational Sciences [NCATS] NIH Chemical Genomics Center [NCGC] U.S. Environmental Protection Agency [EPA] National Institutes of Environmental Health Sciences [NIEHS] National Toxicology Program [NTP] U.S. Food and Drug Administration [FDA] […]
Inconclusive results are not listed. Active and inactive are the calls of the source. Calls come from the whole dose curve; as a rule, active = well fitted cell-killing curve with a large enough effect in the repeat runs; inconclusive = weak or mixed curves; inactive = no such curve, though single readings can be large or run the other way.
Outcomes: active, inactive

- COMPOUND: "COc1ccc(/C(=C/C(=O)N2CCOCC2)c2ccc(Cl)cc2)cc1OC"
  ASSIGNED CATEGORY: "inactive"
- COMPOUND: "O=C1c2ccccc2C(=O)C1C(=O)C(c1ccccc1)c1ccc(Cl)cc1 (stereo unspecified)"
  ASSIGNED CATEGORY: "inactive"
- COMPOUND: "C1CCC2CCCCC2C1 (stereo unspecified)"
  ASSIGNED CATEGORY: "inactive"
- COMPOUND: "Clc1ccc(C(Cl)(Cl)Cl)c(Cl)c1"
  ASSIGNED CATEGORY: "inactive"
- COMPOUND: "C=CC(=O)OCC(COC(=O)C=C)(COC(=O)C=C)COC(=O)C=C"
  ASSIGNED CATEGORY: "active"
- COMPOUND: "N#C/C=C/C#N"
  ASSIGNED CATEGORY: "inactive"

====

Experiment: qHTS assay to identify small molecule agonists of H2AX - cell viability counter screen (AID 1224847); also: nearly all actives have a fitted effect of over 30% in size
Details: CHO-K1 viability, CellTiter-Glo luminescence, 3 h; series mostly up to 154 µM
Results filed as inconclusive are left out. Active and inactive are the calls of the source. Calls come from the whole dose curve.

- COMPOUND: "CC(Cl)CN(C)C (stereo not drawn)"
  outcome: "inactive"
- COMPOUND: "BrCC(Br)c1ccccc1 (stereo not drawn)"
  outcome: "inactive"
- COMPOUND: "CN(C)C1CSSSC1"
  outcome: "inactive"

====

Assay: qHTS assay to identify small molecule agonists of the constitutive androstane receptor (CAR) signaling pathway - cell viability counter screen (AID 1224836); also: nearly all actives have a fitted effect of over 45% in size
Details: HepG2-CYP2B6-hCAR viability, CellTiter-Fluor, 23 h, PK11195 added to every well; series mostly up to 92.4 µM
Records with an inconclusive call do not appear. Activity calls are given as the source filed them. Calls come from the whole dose curve; as a rule, active = well fitted cell-killing curve with a large enough effect in the repeat runs; inconclusive = weak or mixed curves, or effect the other way; inactive = flat fitted curve, though single readings scatter.
Outcomes: yes for active, no for inactive

- COMPOUND: "c1ccc(OCC2CO2)cc1 (centres undefined)"
  ASSIGNED CATEGORY: "no"
- COMPOUND: "CCCCCCCCCCCCCCC(Br)C(=O)O (centres undefined)"
  ASSIGNED CATEGORY: "no"
- COMPOUND: "CCCCCCCCCCCCCCCCCCn1cc[n+](C)c1"
  ASSIGNED CATEGORY: "yes"
- COMPOUND: "O=[N+]([O-])O.O=[N+]([O-])O.[Cd]"
  ASSIGNED CATEGORY: "yes"
- COMPOUND: "COc1cc(N)c(Cl)cc1C(=O)NC1CN2CCC1CC2 (centres undefined)"
  ASSIGNED CATEGORY: "no"
- COMPOUND: "CC(=O)c1cc(C(C)(C)C)cc2c1CCC2(C)C"
  ASSIGNED CATEGORY: "no"
- COMPOUND: "C[C@]12CC[C@H]3[C@@H](CCC4=CC(=O)CC[C@@]43C)[C@@H]1CC[C@@H]2O"
  ASSIGNED CATEGORY: "no"
- COMPOUND: "CC(=[OH+])/C=C(/C)[O-].CC(=[OH+])/C=C(\\C)[O-].CC(=[OH+])/C=C(\\C)[O-].[Fe]"
  ASSIGNED CATEGORY: "no"
- COMPOUND: "CC(=O)[O-].[Tl+]"
  ASSIGNED CATEGORY: "no"
- COMPOUND: "[Cl][Sn]([c]1ccccc1)([c]1ccccc1)[c]1ccccc1"
  ASSIGNED CATEGORY: "yes"
- COMPOUND: "CC(C)[C@H](C(=O)OC(C#N)c1cccc(Oc2ccccc2)c1)c1ccc(OC(F)F)cc1 (some centres undefined)"
  ASSIGNED CATEGORY: "no"
- COMPOUND: "CC(C)CBr"
  ASSIGNED CATEGORY: "no"
- COMPOUND: "ClCCN1CCOCC1"
  ASSIGNED CATEGORY: "no"
- COMPOUND: "CN(CCCC(=O)c1cccnc1)N=O"
  ASSIGNED CATEGORY: "no"
